target: T1, hK1 (human tissue kallikrein 1), recombinant (human, UniProt P06870 25-262); test: SPR
T1 construct: Expressed in P. pastoris from KLK1 cDNA and purified; enzymatically active; also called KLK1; Recombinant (Pichia) Kallikrein
Labelling: Kd reported below 4 nM becomes t; at or above becomes f.

Query block: Criterion: Kd strictly below 4 nM. Is it met by M0132-D02 (Fab, V domains shown) VH: EVQLLESGGGLVQPGGSLRLSCAASGFTFSHYPMDWVRQAPGKGLEWVSYIGPSGGSTRYADSVKGRFTISRDNSKNTLYLQMNSLRAEDTAVYYCARHVPPGTWGQGTLVTVSS VL: AQSALTQPRSVSGSPGQSVTISCTGTSSDVNYVSWYQQHPGKAPKLMIYAVTKRPSGVPDRFSGSKSGNTASLTVSGLQAEDEADYYCSSYAGSNNLVFGGGTKLTVLG ?
Result block: f

Query block: And the next one, M0124-G12 (Fab, V domains shown) VH: EVQLLESGGGLVQPGGSLRLSCAASGFTFSHYWMRWVRQAPGKGLEWVSSIGSSGGMTKYADSVKGRFTISRDNSKNTLYLQMNSLRAEDTAVYYCARALRWRAFDIWGQGTMVTVSS VL: DIQMTQSPSSVSASVGDRVTITCRASQGISSWLAWYQQKPGKAPKLLIYAASSLQSGVPSRFSGSGSGTDFTLTISSLQPEDFATYYCQQANSFPLTFGGGTKVEIKR ?
Result block: f

Query block: And the next one, M0139-F09 (Fab, V domains shown) VH: EVQLLESGGGLVQPGGSLRLSCAASGFTFSHYVMAWVRQAPGKGLEWVSRIGPSGGYTMYADSVKGRFTISRDNSKNTLYLQMNSLRAEDTAVYYCARVGVWYGMDVWGQGTTVTVSS VL: DIQMTQSPGTLSLSPGERATLSCRASQSVSSSYLAWYQQKPGQAPRLLIYGASSRATGIPDRFSGSGSGTDFTLTISSLQLEDFGTYFCQQSYRSPYTFGQGTKVDIKR ?
Result block: t

Query block: And the next one, M0124-C12 (Fab, V domains shown) VH: EVQLLESGGGLVQPGGSLRLSCAASGFTFSWYTMQWVRQAPGKGLEWVSRIYSSGGGTYYADSVKGRFTISRDNSKNTLYLQMNSLRAEDTAMYYCARVGPWGAFDIWGQGTMVTVSS VL: DIQMTQSPGTLSLSPGERATLSCRASQSVSSNYLAWYQQKPGKAPKLLIYAASSLQSGVPSRFSGSGSGTDFTLTISSLQPEDFATYYCQQRWTFGQGTKVEIKR ?
Result block: f

Query block: And the next one, M0111-C10 (Fab, V domains shown) VH: EVQLLESGGGLVQPGGSLRLSCAASGFTFSRYVMSWVRQAPGKGLEWVSSIRSSGGRTMYADSVKGRFTISRDNSKNTLYLQMNSLRAEDTAVYYCARVGVWYGMDVWGQGTTVTVSS VL: DIQMTQSPSSLSASVGDRVTITCRASQSISSYLNWYQQKPEKAPQLLIFAASSLQSGVPSRFSGSGSGTDFTLTISSLQPEDFATYYCQQSYNAPWTFGQGTKVEIRR ?
Result block: t

These entries and their values trace back to patent US7329737.
